Each entry below carries its recorded self-cleavage.
B1: Hairpin Ribozyme (parent)
chain: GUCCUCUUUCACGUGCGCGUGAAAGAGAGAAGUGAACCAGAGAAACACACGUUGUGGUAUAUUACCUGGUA

Variants of: B1
assay.protocol: self-cleavage, relative activity (ratio to wild type); higher = more cleavage; co-transcriptional

U14C A64U :: 0.199
U7C G25A :: 0.306
A24U G25U :: 0.682
G13U A41U :: 1.15

Note: attention shifts to another entry.
Which self-cleavage value is on record for A41C U58G ? 1.18
